Target: MMP-9 (Homo sapiens)
Sequence (P14780 94-707): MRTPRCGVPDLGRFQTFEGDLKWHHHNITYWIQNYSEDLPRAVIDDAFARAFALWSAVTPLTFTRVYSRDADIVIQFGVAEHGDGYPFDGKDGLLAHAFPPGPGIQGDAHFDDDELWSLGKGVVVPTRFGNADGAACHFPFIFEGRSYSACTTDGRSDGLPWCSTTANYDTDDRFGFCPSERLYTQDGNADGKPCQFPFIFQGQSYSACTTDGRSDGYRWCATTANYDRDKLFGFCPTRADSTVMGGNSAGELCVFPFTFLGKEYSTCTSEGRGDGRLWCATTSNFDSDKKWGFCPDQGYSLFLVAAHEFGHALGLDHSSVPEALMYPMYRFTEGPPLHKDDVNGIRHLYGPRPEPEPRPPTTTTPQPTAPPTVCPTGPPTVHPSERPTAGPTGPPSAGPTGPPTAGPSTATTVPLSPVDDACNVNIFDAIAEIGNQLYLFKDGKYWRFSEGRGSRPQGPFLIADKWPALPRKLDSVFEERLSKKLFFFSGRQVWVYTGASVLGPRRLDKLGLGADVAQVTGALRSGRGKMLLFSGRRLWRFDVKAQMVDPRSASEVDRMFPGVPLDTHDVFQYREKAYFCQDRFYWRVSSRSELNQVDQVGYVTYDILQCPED
Assay: MMP-9 inhibition (thiopeptide or fluorescent peptide substrate)
Assay type: biochemical
Conditions: read-out: MMP-9 IC50
pIC50: −log10 of the molar value. Where a name gives a salt, the structure may show the parent alone.
// pIC50 lookup, one value per entry

>  <MOLECULE>
CC#CCOc1ccc(S(=O)(=O)NC2(C(=O)NO)CCCCC2)cc1

>  <TEST_TARGET>
MMP-9 (Homo sapiens)

>  <pIC50>
5.66

$$$$
>  <MOLECULE>
CC#CCOc1ccc(S(=O)(=O)N2CCN(C(=O)N(C(C)C)C(C)C)CC2C(=O)NO)cc1 (stereo not drawn)

>  <TEST_TARGET>
MMP-9 (Homo sapiens)

>  <pIC50>
6.09

$$$$
>  <MOLECULE>
CC#CCOc1ccc(S(=O)(=O)N(CCCN2CCN(C)CC2)C(C(=O)NO)C(C)C)cc1 (stereo not drawn) [Example 120, Hydrochloride]

>  <TEST_TARGET>
MMP-9 (Homo sapiens)

>  <pIC50>
6.68

$$$$
>  <MOLECULE>
CC#CCOc1ccc(S(=O)(=O)N[C@@H](C(=O)NO)c2ccc(OCCNC(=O)OC(C)(C)C)cc2)cc1

>  <TEST_TARGET>
MMP-9 (Homo sapiens)

>  <pIC50>
6.06

$$$$
>  <MOLECULE>
CC#CCOc1ccc(S(=O)(=O)N(C)C(C(=O)NO)c2ccc(OCCNC(=O)OC(C)(C)C)cc2)cc1 (stereo not drawn)

>  <TEST_TARGET>
MMP-9 (Homo sapiens)

>  <pIC50>
7.47

$$$$
>  <MOLECULE>
CC#CCOc1ccc(S(=O)(=O)N[C@@H](C(=O)NO)C(C)(C)SC)cc1

>  <TEST_TARGET>
MMP-9 (Homo sapiens)

>  <pIC50>
6.79

$$$$
>  <MOLECULE>
CC#CCOc1ccc(S(=O)(=O)N(C)C(C(=O)NO)C(C)(C)SCCn2ccnc2)cc1 (stereo not drawn)

>  <TEST_TARGET>
MMP-9 (Homo sapiens)

>  <pIC50>
7.59

$$$$
>  <MOLECULE>
CC#CCOc1ccc(S(=O)(=O)N2CCN(C(=O)c3ccccc3)CCC2C(=O)NO)cc1 (stereo not drawn)

>  <TEST_TARGET>
MMP-9 (Homo sapiens)

>  <pIC50>
7.92

$$$$
>  <MOLECULE>
CC#CCOc1ccc(S(=O)(=O)N2CCN(C(=O)C(C)(CO)CO)CC2C(=O)NO)cc1 (stereo not drawn)

>  <TEST_TARGET>
MMP-9 (Homo sapiens)

>  <pIC50>
6.11

$$$$
>  <MOLECULE>
CC#CCOc1ccc(S(=O)(=O)N(C)[C@@H](C(=O)NO)[C@H]2CC[C@H](O)CC2)cc1

>  <TEST_TARGET>
MMP-9 (Homo sapiens)

>  <pIC50>
7.52

$$$$
>  <MOLECULE>
CC#CCOc1ccc(S(=O)(=O)NC(C(=O)NO)c2ccc(O)cc2)cc1 (stereo not drawn)

>  <TEST_TARGET>
MMP-9 (Homo sapiens)

>  <pIC50>
6.05

$$$$
>  <MOLECULE>
CC#CCOc1ccc(S(=O)(=O)N2CCN(Cc3ccccc3)CCC2C(=O)NO)cc1 (stereo not drawn)

>  <TEST_TARGET>
MMP-9 (Homo sapiens)

>  <pIC50>
7.60

$$$$
>  <MOLECULE>
CC#CCOc1ccc(S(=O)(=O)N(C)C(C(=O)NO)C(C)(C)SCCN2CCOCC2)cc1 (stereo not drawn) [Example 140, Hydrochloride]

>  <TEST_TARGET>
MMP-9 (Homo sapiens)

>  <pIC50>
6.99

$$$$
>  <MOLECULE>
C#CCOc1ccc(C(NS(=O)(=O)c2ccc(OCC#CC)cc2)C(=O)NO)cc1 (stereo not drawn)

>  <TEST_TARGET>
MMP-9 (Homo sapiens)

>  <pIC50>
6.51

$$$$
>  <MOLECULE>
CC#CCOc1ccc(S(=O)(=O)N(C)C(C(=O)NO)c2ccc(OCCN3CCCC3)cc2)cc1 (stereo not drawn)

>  <TEST_TARGET>
MMP-9 (Homo sapiens)

>  <pIC50>
7.26

$$$$
>  <MOLECULE>
CC#CCOc1ccc(S(=O)(=O)NC2(C(=O)NO)CCCC2)cc1

>  <TEST_TARGET>
MMP-9 (Homo sapiens)

>  <pIC50>
5.43

$$$$
>  <MOLECULE>
CC#CCOc1ccc(S(=O)(=O)N(C)C(C(=O)NO)C(C)(C)SCCC)cc1 (stereo not drawn)

>  <TEST_TARGET>
MMP-9 (Homo sapiens)

>  <pIC50>
7.51

$$$$
>  <MOLECULE>
CC#CCOc1ccc(S(=O)(=O)N(C)C(C(=O)NO)C(C)(C)SCCCN2CCN(C)CC2)cc1 (stereo not drawn)

>  <TEST_TARGET>
MMP-9 (Homo sapiens)

>  <pIC50>
8.28

$$$$
>  <MOLECULE>
CC#CCOc1ccc(S(=O)(=O)N(CC(C)C)C(C(=O)NO)C(C)C)cc1 (stereo not drawn)

>  <TEST_TARGET>
MMP-9 (Homo sapiens)

>  <pIC50>
6.04

$$$$
>  <MOLECULE>
CC#CCOc1ccc(S(=O)(=O)N(CCN2CCOCC2)C(C(=O)NO)C(C)C)cc1 (stereo not drawn)

>  <TEST_TARGET>
MMP-9 (Homo sapiens)

>  <pIC50>
6.20

$$$$
>  <MOLECULE>
CC#CCOc1ccc(S(=O)(=O)N(C)C(C(=O)NO)c2ccc(OCCCN)cc2)cc1 (stereo not drawn)

>  <TEST_TARGET>
MMP-9 (Homo sapiens)

>  <pIC50>
7.32

$$$$

---

Target: MMP-13 (Homo sapiens, UniProt P45452)
Test: MMP-13 inhibition (thiopeptide or fluorescent peptide substrate)
Assay type: biochemical
Settings: read-out: MMP-13 IC50
pIC50: −log10 of the molar value.

>  <COMPOUND>
CC#CCOc1ccc(S(=O)(=O)NC(C(=O)NO)C(C)(C)SCc2nccn2C)cc1 (stereo not drawn) [Example 163]

>  <pIC50>
7.33

$$$$
>  <COMPOUND>
CC#CCOc1ccc(S(=O)(=O)N(C)C(CCCSc2ccc(Cl)cc2)C(=O)NO)cc1 (stereo not drawn) [Example 213]

>  <pIC50>
8.05

$$$$
>  <COMPOUND>
CN(CC(=O)NO)S(=O)(=O)c1ccc(OCC#Cc2ccc(Cl)cc2)cc1 [Example 132]

>  <pIC50>
5.95

$$$$
>  <COMPOUND>
CC#CCOc1ccc(S(=O)(=O)NC(C(=O)NO)C(C)(C)SCCC)cc1 (stereo not drawn) [Example 160]

>  <pIC50>
7.19

$$$$
>  <COMPOUND>
CC#CCOc1ccc(S(=O)(=O)NC(C(=O)NO)c2ccc(OCCOCCOCCOC)cc2)cc1 (stereo not drawn) [Example 209]

>  <pIC50>
6.88

$$$$
>  <COMPOUND>
CC#CCOc1ccc(S(=O)(=O)N(C)[C@H](CSC)C(=O)NO)cc1 [Example 154]

>  <pIC50>
8.27

$$$$
>  <COMPOUND>
CC#CCOc1ccc(S(=O)(=O)N[C@@H](C(=O)NO)c2ccc(OCCNC(=O)OC(C)(C)C)cc2)cc1 [Example 199]

>  <pIC50>
6.86

$$$$
>  <COMPOUND>
CC#CCOc1ccc(S(=O)(=O)N2CCN(C(=O)C(C)(CO)CO)CC2C(=O)NO)cc1 (stereo not drawn) [Example 232]

>  <pIC50>
6.54

$$$$
>  <COMPOUND>
CC#CCOc1ccc(S(=O)(=O)N2CCN(C(=O)OC(C)(C)C)CC2C(=O)NO)cc1 (stereo not drawn) [Example 58]

>  <pIC50>
7.77

$$$$

---

Biological target: UniProt:P03956
Sequence (P03956 100-469): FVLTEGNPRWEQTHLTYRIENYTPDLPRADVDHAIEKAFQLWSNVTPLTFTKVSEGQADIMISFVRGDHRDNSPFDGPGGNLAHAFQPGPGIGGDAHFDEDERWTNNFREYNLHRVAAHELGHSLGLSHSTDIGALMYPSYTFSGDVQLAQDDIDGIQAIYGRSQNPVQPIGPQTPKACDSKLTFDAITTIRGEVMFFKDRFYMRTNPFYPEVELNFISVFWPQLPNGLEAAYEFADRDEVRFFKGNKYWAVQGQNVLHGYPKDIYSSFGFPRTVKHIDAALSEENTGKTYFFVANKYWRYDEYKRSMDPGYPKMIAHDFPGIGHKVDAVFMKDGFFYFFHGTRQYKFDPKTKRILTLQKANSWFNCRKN
Experiment: MMP-1 inhibition (thiopeptide or fluorescent peptide substrate)
Format: biochemical
Settings: read-out: MMP-1 IC50
pIC50: −log10 of the molar value.
// pIC50 lookup, one value per entry

>  <COMPOUND>
CC#CCOc1ccc(S(=O)(=O)NC(C(=O)NO)c2ccc(OCCN3CCCC3)cc2)cc1 (stereo not drawn) [Example 205]

>  <pIC50>
~5.00

$$$$
>  <COMPOUND>
CC#CCOc1ccc(S(=O)(=O)NC(C(=O)NO)c2ccc(OCCN(C)C)cc2)cc1 (stereo not drawn) [Example 207]

>  <pIC50>
< 5.00

$$$$
>  <COMPOUND>
CC#CCOc1ccc(S(=O)(=O)N(C)C(C(=O)NO)c2ccc(OCCCNC(=O)OCCCC)cc2)cc1 (stereo not drawn) [Example 195]

>  <pIC50>
< 6.00

$$$$

---

Target: UniProtKB P45452
Assay: MMP-13 inhibition (thiopeptide or fluorescent peptide substrate)
Type: biochemical
Settings: read-out: MMP-13 IC50
Counter-ions that a name gives are not always drawn.
// IC50 lookup, one value per entry

>  <MOLECULE>
CC#CCOc1ccc(S(=O)(=O)N2CCN(S(C)(=O)=O)CC2C(=O)NO)cc1 (centres unmarked)

>  <IC50>
6.4 nM

$$$$
>  <MOLECULE>
CC#CCOc1ccc(S(=O)(=O)NC(C(=O)NO)C(C)(C)SCCN2CCOCC2)cc1 (centres unmarked)

>  <IC50>
20 nM

$$$$
>  <MOLECULE>
CC#CCOc1ccc(S(=O)(=O)N2CCN(C(=O)Nc3ccc(F)cc3)CC2C(=O)NO)cc1 (centres unmarked)

>  <IC50>
75 nM

$$$$
>  <MOLECULE>
CC#CCOc1ccc(S(=O)(=O)N(C)C(C(=O)NO)c2ccc(OCCN3CCCC3=O)cc2)cc1 (centres unmarked)

>  <IC50>
11 nM

$$$$
>  <MOLECULE>
CC#CCOc1ccc(S(=O)(=O)N(C)C(C(=O)NO)c2ccc(OCCN3CCCC3)cc2)cc1 (centres unmarked)

>  <IC50>
42 nM

$$$$
>  <MOLECULE>
CC#CCOc1ccc(S(=O)(=O)N(C)C(C(=O)NO)C(C)(C)SCCC)cc1 (centres unmarked)

>  <IC50>
14 nM

$$$$
>  <MOLECULE>
CC#CCOc1ccc(S(=O)(=O)N(C)C(C(=O)NO)C(C)(C)SCC)cc1 (centres unmarked)

>  <IC50>
9.3 nM

$$$$
>  <MOLECULE>
CC#CCOc1ccc(S(=O)(=O)N2CCN(C(=O)Nc3ccc(OC)cc3)CC2C(=O)NO)cc1 (centres unmarked)

>  <IC50>
182 nM

$$$$
>  <MOLECULE>
CC#CCOc1ccc(S(=O)(=O)NC(C(=O)NO)c2ccc(OCCN(C)C)cc2)cc1 (centres unmarked)

>  <IC50>
112 nM

$$$$
>  <MOLECULE>
CC#CCOc1ccc(S(=O)(=O)N2CCN(C(=O)N3CCCC3)CC2C(=O)NO)cc1 (centres unmarked)

>  <IC50>
83 nM

$$$$
>  <MOLECULE>
CC#CCOc1ccc(S(=O)(=O)N(C)C(C(=O)NO)c2ccc(OCCN)cc2)cc1 (centres unmarked)

>  <IC50>
24 nM

$$$$
>  <MOLECULE>
CC#CCOc1ccc(S(=O)(=O)N2CSC(C)(C)[C@@H]2C(=O)NO)cc1

>  <IC50>
852 nM

$$$$
>  <MOLECULE>
CC#CCOc1ccc(S(=O)(=O)N(Cc2cccnc2)C(C)C(=O)NO)cc1 (centres unmarked) [Example 33, Hydrochloride]

>  <IC50>
26 nM

$$$$
>  <MOLECULE>
CC#CCOc1ccc(S(=O)(=O)N(Cc2cccnc2)C2(C(=O)NO)CCCCC2)cc1

>  <IC50>
48 nM

$$$$
>  <MOLECULE>
CC#CCOc1ccc(S(=O)(=O)N(C)C(C(=O)NO)c2ccc(OCCN3CCN(C(=O)OC(C)(C)C)CC3)cc2)cc1 (centres unmarked)

>  <IC50>
27 nM

$$$$
>  <MOLECULE>
CC#CCOc1ccc(S(=O)(=O)N(C)C(C(=O)NO)C(C)(C)SCCCN2CCN(C)CC2)cc1 (centres unmarked)

>  <IC50>
5.3 nM

$$$$
>  <MOLECULE>
C#CCN(C(C(=O)NO)C(C)C)S(=O)(=O)c1ccc(OCC#CC)cc1 (centres unmarked)

>  <IC50>
53 nM

$$$$
>  <MOLECULE>
CC#CCOc1ccc(S(=O)(=O)N(CC)C(C(=O)NO)C(C)C)cc1 (centres unmarked)

>  <IC50>
67 nM

$$$$
>  <MOLECULE>
CC#CCOc1ccc(S(=O)(=O)N2CCN(C(=O)OC)CC2C(=O)NO)cc1 (centres unmarked)

>  <IC50>
9.2 nM

$$$$
>  <MOLECULE>
CC#CCOc1ccc(S(=O)(=O)NC(C(=O)NO)C(C)(C)SCc2cccnc2)cc1 (centres unmarked)

>  <IC50>
7.9 nM

$$$$
>  <MOLECULE>
CC#CCOc1ccc(S(=O)(=O)N(C)C(C(=O)NO)c2ccc(OCCN(C)C(=O)OC(C)(C)C)cc2)cc1 (centres unmarked)

>  <IC50>
60 nM

$$$$
>  <MOLECULE>
CC#CCOc1ccc(S(=O)(=O)N(C)C2(C(=O)NO)CCCCC2)cc1

>  <IC50>
1630 nM

$$$$
>  <MOLECULE>
CC#CCOc1ccc(S(=O)(=O)N(C)C(C(=O)NO)c2ccc(OCCNC(=O)OC(C)(C)C)cc2)cc1 (centres unmarked)

>  <IC50>
9.3 nM

$$$$

Where these numbers come from: patent US6716833B2
